system: U2OS; test: cell viability relative to DMSO; higher = less toxic; conditions: 72 h; 10 nM
property measured: cell viability

Q: Let me know recorded cell viability for CC(C)C(=O)Nc1ccc([N+](=O)[O-])c(C(F)(F)F)c1 [flutamide] , thanks.
Result: 97.2%

Q: Specify reported cell viability for the compound shown: O=C(O)CNC(=O)c1c(O)c2ccccc2n(Cc2ccccc2)c1=O [IOX2]
Result: 102%

Q: Please indicate cell viability recorded for Oc1ccc(OCc2ccccc2)cc1 [monobenzone]
Result: 96.9%

Q: Indicate the recorded cell viability value for this compound: OCc1ccc(O[C@@H]2O[C@H](CO)[C@@H](O)[C@H](O)[C@H]2O)cc1 [gastrodin]
Result: 99.9%

Q: Consider the compound CCCC[C@]1(CC)CS(=O)(=O)c2cc(CNC(CC(=O)O)CC(=O)O)c(OC)cc2[C@@H](c2ccccc2)N1 and give its recorded cell viability.
Result: 101%

Q: State, in one line, measured cell viability of CCCCCCCCCCCCCCCCO [1-hexadecanol]
Result: 100%

Q: Output measured cell viability for this item: COc1cc2c(cc1O)CC[C@@H]1[C@@H]2CC[C@]2(C)[C@@H](O)CC[C@@H]12 [2-methoxyestradiol]
Result: 95.1%

Q: Look up and report measured cell viability for this entry: CCOC(=O)c1c[nH]cn1 [C-751]
Result: 100%

Q: // Input: O=S(=O)(O)CCSSCCS(=O)(=O)O [dimesna] . Output its cell viability only.
Result: 98.7%

Q: In one line, give reported cell viability of the entry CN1C(CCl)Nc2cc(Cl)c(S(N)(=O)=O)cc2S1(=O)=O (stereo not drawn) [methyclothiazide] .
Result: 96.9%

Q: Check the records and state cell viability for COc1cc2c(NC3CCN(C)CC3)nc(N3CCCN(C)CC3)nc2cc1OCCCN(C)C [UNC0224]
Result: 96%

Q: Output measured cell viability for this item: CN(Cc1ccccc1)C(=O)[C@H](Cc1ccc2ccccc2c1)NC(=O)[C@@H]1CCCN1C(=O)Nc1ccccc1[N+](=O)[O-] [SDZ-NKT-343]
Result: 103%

Q: Using the record for Cn1nnc2c(C(N)=O)ncn2c1=O [temozolomide] , state its measured cell viability.
Result: 103%

###

test system: Caco-2; assay: cell viability relative to DMSO; higher = less toxic; settings: 72 h; 10 nM
property measured: cell viability (%)
Give the number; % is assumed, so skip it.

Q: Identify measured cell viability corresponding to CN(CCOc1ccc(CC2SC(=O)NC2=O)cc1)c1ccccn1 (stereo not drawn)
Result: 93

Q: Identify the reported cell viability for the following entry. CCO[C@@H](Cc1ccc(OCCn2c(C)ccc2-c2ccc(SC)cc2)cc1)C(=O)O
Result: 92.8

Q: Supply measured cell viability of CCCCCCCCCCCCCCCCNc1ccc(C(=O)O)cc1 in your reply.
Result: 97.4

###

system: Calu-3; assay: cell viability relative to DMSO; higher = less toxic; settings: 72 h; 1 nM
So I've got a bunch of molecules here, and I need their cell viability values.
Provide only the numeric value, understood in %.

Q: Item CNC(C)(C)Cc1ccccc1 : provide cell viability
Result: 101

Q: Given the molecule O=C(CCc1ccncc1)NNC(=O)N1Cc2ccccc2Oc2ccc(Cl)cc21 , write its reported cell viability.
Result: 103

Q: Please look at this molecule and report its cell viability: c1nc(CC2CCNCC2)c[nH]1 [immepip]
Result: 96.7

###

system: A549-ACE2; assay: drug-induced phospholipidosis relative to tamoxifen; higher = more phospholipidosis; conditions: 0.833333 µM; 72 h
property measured: drug-induced phospholipidosis (%)
Quick reminder: number only, in %, skip the unit.

Q: Report measured drug-induced phospholipidosis; entry is COc1ccc2cc1Oc1ccc(cc1)C[C@H]1c3cc(c(OC)cc3CCN1C)Oc1c(OC)c(OC)cc3c1[C@H](C2)N(C)CC3 [tetrandrine]
Result: 16.5

Q: Fill in reported drug-induced phospholipidosis for this entry: CN1C2C=C(c3sccc3Br)CC1CC2 (centres undefined) [NS-3861]
Result: -2.54

Q: Please supply the value of reported drug-induced phospholipidosis for the item CCCCCC(=O)O[C@]1(C(C)=O)CC[C@H]2[C@@H]3CCC4=CC(=O)CC[C@]4(C)[C@H]3CC[C@@]21C [17-hydroxyprogesterone-caproate]
Result: 2.38

Q: Fill in reported drug-induced phospholipidosis for this entry: C1CCC(C(CC2CCCCN2)C2CCCCC2)CC1 (centres undefined) [perhexiline]
Result: 14.3

###

system: Calu-3; test: drug sensitivity score (DSS) for viability; higher = more toxic; extreme values may be limits of the assay; details: 72 h
property measured: drug sensitivity score
When you answer, write just the number.

Q: Fill in reported drug sensitivity score for this entry: NNC(=O)c1ccncc1
Result: 0

Q: Please give measured drug sensitivity score of the following entry: CC(=O)Nc1cccc(-n2c(=O)n(C3CC3)c(=O)c3c(Nc4ccc(I)cc4F)n(C)c(=O)c(C)c32)c1
Result: 19

Q: Could you please provide reported drug sensitivity score for O=c1oc2c(O)c(O)cc3c(=O)oc4c(O)c(O)cc1c4c23 ? Thanks!
Result: 0

Q: Answer with the recorded drug sensitivity score for the compound listed here: O=S(=O)(O)CCSSCCS(=O)(=O)O
Result: 1.4

Q: Indicate its recorded drug sensitivity score; the compound in question is O=c1cc(-c2ccc(O)cc2)oc2cc(O)cc(O)c12
Result: 0

Q: Report measured drug sensitivity score; entry is COc1ccc(/C=C/CCCCOc2ccc(C(=O)c3cccc(C(=O)O)c3)cc2CCC(=O)O)cc1
Result: 0

Q: Fill in drug sensitivity score for record COc1cc(SC)ccc1C(=O)N1CCC(Cc2ccccc2)CC1
Result: 0

Q: For the compound CCCn1c(=O)c2[nH]c(-c3cnn(Cc4cccc(C(F)(F)F)c4)c3)nc2n(CC)c1=O , give its reported drug sensitivity score.
Result: 0

Q: Supply drug sensitivity score value. Item: O=c1cccc2n1C[C@@H]1CNC[C@H]2C1
Result: 0

Q: Assign drug sensitivity score to the following record: CC1(C)[C@H]2CC[C@]1(C)[C@@H](O)[C@H]2O [cis-exo-camphanediol-2,3]
Result: 0

Q: Return the recorded drug sensitivity score value; entry: CCOc1nc2cccc(C(=O)OCc3oc(=O)oc3C)c2n1Cc1ccc(-c2ccccc2-c2noc(=O)[nH]2)cc1
Result: 0

Q: Entry O=C(CCc1ccncc1)NNC(=O)N1Cc2ccccc2Oc2ccc(Cl)cc21 needs its drug sensitivity score filled in; supply it.
Result: 0

Q: Supply measured drug sensitivity score of C[C@@H]1CC[C@H]2C(C)(C)[C@H]3C[C@@]12CC[C@@]3(C)O in your reply.
Result: 0

Q: Fill in drug sensitivity score for record Oc1ccc2ccccc2c1
Result: 0

Q: # return recorded drug sensitivity score for input CN1CCN(CCCN2c3ccccc3Sc3ccc(Cl)cc32)CC1
Result: 0

Q: Read off the recorded drug sensitivity score for COc1cc2c(NC3CCN(C)CC3)nc(N3CCCN(C)CC3)nc2cc1OCCCN(C)C
Result: 0

Q: Find the measured drug sensitivity score of CCCN(C/C=C/I)[C@H]1CCc2ccc(O)cc2C1 [7-hydroxy-PIPAT] and report it.
Result: 0

Q: Name the recorded drug sensitivity score of the item CCOc1ccc(Nc2nc(-c3c(C)nc4ccccn34)cs2)cc1 in your answer.
Result: 8.3

Q: Specify reported drug sensitivity score for the compound shown: C[C@@H]1O[C@@H](O[C@@H]2[C@@H](O)[C@H](OCCc3ccc(O)c(O)c3)O[C@H](CO)[C@H]2OC(=O)/C=C/c2ccc(O)c(O)c2)[C@H](O)[C@H](O)[C@H]1O [verbascoside]
Result: 0

Q: Answer with the recorded drug sensitivity score of Cc1ccc([N+](=O)[O-])cc1S(=O)(=O)N(C)C only.
Result: 0

Q: Hello, please tell me recorded drug sensitivity score for this one: Nc1ccc(O)c(C(=O)O)c1
Result: 0

Q: Consider the compound C#C[C@]1(O)CC[C@H]2[C@@H]3CCC4=Cc5oncc5C[C@]4(C)[C@H]3CC[C@@]21C . State its measured drug sensitivity score.
Result: 0

Q: Name the recorded drug sensitivity score of the compound listed here: Cc1n[nH]c2ccc(-c3cncc(OC[C@@H](N)Cc4ccccc4)c3)cc12
Result: 2.9

Q: State, in one line, measured drug sensitivity score of CCO[C@@H](Cc1ccc(OCCn2c(C)ccc2-c2ccc(SC)cc2)cc1)C(=O)O
Result: 0

Q: Retrieve drug sensitivity score measured for O=C(N[C@@H]1Cc2ccccc2N(C[C@@H](O)CO)C1=O)c1cc2cc(Cl)sc2[nH]1 and print it.
Result: 0.3

Q: Annotate the compound Cn1c(NCCN(CCO)CCCc2ccc([N+](=O)[O-])cc2)cc(=O)n(C)c1=O with its measured drug sensitivity score.
Result: 0

Q: Fill in drug sensitivity score for record COC(=O)[C@@H]1C[C@H](OC(C)=O)C(=O)[C@H]2[C@@]1(C)CC[C@H]1C(=O)O[C@H](c3ccoc3)C[C@]21C
Result: 0

Q: Look up drug sensitivity score of c1ccc(CCCN2CCN(CCOC(c3ccccc3)c3ccccc3)CC2)cc1 and report it.
Result: 0

Q: Answer with the recorded drug sensitivity score for the compound listed here: C=CC(=O)N1CCN(C(=O)CNc2cc(I)c(Cl)cc2O)CC1 [K-Ras(G12C)-inhibitor-12]
Result: 3.5

Q: Recall and state the measured drug sensitivity score for CCCCCCOc1nsnc1C1=CCCN(C)C1 .
Result: 0

Q: Return reported drug sensitivity score. Input compound: CCN(CC)CC1CCN(c2ncc3ncnc(Nc4ccc(F)c(Cl)c4)c3n2)CC1
Result: 10.1

Q: Supply measured drug sensitivity score of CCOC(=O)COc1ccc2c(=O)cc(-c3ccccc3)oc2c1 [efloxate] in your reply.
Result: 3

Q: Specify reported drug sensitivity score for the compound shown: CCCCNc1cc(C(=O)O)cc(S(N)(=O)=O)c1Oc1ccccc1 [bumetanide]
Result: 0

Q: Please look at this compound and report its drug sensitivity score: OC(c1ccccc1)C1CCN(CCc2ccccc2)CC1 (stereo not drawn)
Result: 0

Q: Input NC/C(=C/F)CCc1ccc(F)cc1 , output reported drug sensitivity score.
Result: 0

Q: Supply reported drug sensitivity score belonging to this compound: O=C(CNC(=O)c1ccc(Cl)cc1)NO
Result: 0

Q: Give drug sensitivity score for Cc1cc(CC(C)CC(C)(C)C)n(O)c(=O)c1 (stereo not drawn)
Result: 3.4

Q: Given the compound Cn1cccc1/C=C1\C(=O)NC(=O)c2ccccc21 , write its reported drug sensitivity score.
Result: 2.7
